Conditions: 323.15 K; 100 kPa; Liquid; Vibrating tube method
Parameter Measured: mass density (kg/m3)

INSERT INTO assay_data (molecule, parameter_measured, units_symbol, reported) VALUES
  ('CCCCCCC(=O)[O-].CN(C)C(=[NH2+])N(C)C [1,1,3,3-tetramethylguanidinium heptanoate]', 'mass density', 'kg/m3', 965),
  ('CCCCCCCC(=O)[O-].CN(C)C(=[NH2+])N(C)C [1,1,3,3-tetramethylguanidinium octanoate]', 'mass density', 'kg/m3', 948.95),
  ('CCCCCC(=O)[O-].CN(C)C(=[NH2+])N(C)C [1,1,3,3-tetramethylguanidinium hexanoate]', 'mass density', 'kg/m3', 976.82),
  ('CCCC(=O)[O-].CN(C)C(=[NH2+])N(C)C [1,1,3,3-tetramethylguanidinium butanoate]', 'mass density', 'kg/m3', 1011.3),
  ('CCCCC(=O)[O-].CN(C)C(=[NH2+])N(C)C [1,1,3,3-tetramethylguanidinium pentanoate]', 'mass density', 'kg/m3', 989.84);
